- assay: Plasma protein binding (RED), rat plasma
- Type: in vitro ADME
- cond: Wistar, pooled plasma, pH 7.4, rat plasma, 10 µM, read-out: PPB (converted)
parameter: fraction unbound at 10 µM

For the compound shown here, C/C(=C\[C@H](C)CCCCC(=O)O)[C@@H]1O[C@@H]2C=C[C@H]1OC(=O)\C=C/C=C\C=C\[C@H]1O[C@@H]3C[C@H]1O[C@@H](/C=C/C[C@H]1O[C@H](C[C@H](O)[C@H]1C)[C@@H](O)[C@@H](O)/C=C/CC/C=C/C2)[C@@H]3C , give the reported fraction unbound at 10 µM.
0.112

* * *

- assay: In vivo pharmacokinetics in male CD-1 mice, i.v.
- Parameters: species or system mouse
- cond: mouse, plasma, iv, 5 mg/kg i.v., read-out: t1/2 (terminal phase) (converted)
parameter: half-life (min)
Quick note: give the figure in min, leave out the unit.

For the compound shown here, C/C(=C\[C@H](C)CCCCC(=O)O)[C@@H]1O[C@@H]2C=C[C@H]1OC(=O)\C=C/C=C\C=C\[C@H]1O[C@@H]3C[C@H]1O[C@@H](/C=C/C[C@H]1O[C@H](C[C@H](O)[C@H]1C)[C@@H](O)[C@@H](O)/C=C/CC/C=C/C2)[C@@H]3C [sorangicin A] , give the reported half-life.
52.2

* * *

- assay: Phase I metabolic stability, human liver microsomes
- Format: in vitro ADME
- cond: pH 7.4
parameter: microsomal CLint at 1 µM (µL/min/mg)
Quick note: give the figure in µL/min/mg, leave out the unit.

For the compound shown here, C/C(=C\[C@H](C)CCCCC(=O)O)[C@@H]1O[C@@H]2C=C[C@H]1OC(=O)\C=C/C=C\C=C\[C@H]1O[C@@H]3C[C@H]1O[C@@H](/C=C/C[C@H]1O[C@H](C[C@H](O)[C@H]1C)[C@@H](O)[C@@H](O)/C=C/CC/C=C/C2)[C@@H]3C , give the reported microsomal CLint at 1 µM.
90.4

* * *

- assay: In vivo pharmacokinetics in male CD-1 mice, i.v.
- Parameters: species or system mouse
- cond: mouse, plasma, iv, 5 mg/kg i.v., read-out: c0 (maximum blood concentration, extrapolated time point zero)
parameter: C0 (µg/mL)
Quick note: give the figure in µg/mL, leave out the unit.

For the compound shown here, C/C(=C\[C@H](C)CCCCC(=O)O)[C@@H]1O[C@@H]2C=C[C@H]1OC(=O)\C=C/C=C\C=C\[C@H]1O[C@@H]3C[C@H]1O[C@@H](/C=C/C[C@H]1O[C@H](C[C@H](O)[C@H]1C)[C@@H](O)[C@@H](O)/C=C/CC/C=C/C2)[C@@H]3C [sorangicin A] , give the reported C0.
1.83

* * *

- assay: In vivo pharmacokinetics in male CD-1 mice, i.v.
- Parameters: species or system mouse
- cond: mouse, plasma, iv, 5 mg/kg i.v., read-out: Vz
parameter: Vd (L/kg)
Quick note: give the figure in L/kg, leave out the unit.

For the compound shown here, C/C(=C\[C@H](C)CCCCC(=O)O)[C@@H]1O[C@@H]2C=C[C@H]1OC(=O)\C=C/C=C\C=C\[C@H]1O[C@@H]3C[C@H]1O[C@@H](/C=C/C[C@H]1O[C@H](C[C@H](O)[C@H]1C)[C@@H](O)[C@@H](O)/C=C/CC/C=C/C2)[C@@H]3C [sorangicin A] , give the reported Vd.
18
